System: Cryptococcus neoformans
Conditions Used: Concentration 32 ug.mL-1; ASSAY_TEST Inhibition of Fungal Growth; detection method Resazurin; Absorption (OD600-OD570); plate type 384well; NBS; CORNING #3640
Description: Antifungal activity against Cryptococcus neoformans H99 ATCC 208821 (CO-ADD:FG_002); MIC in YNB media using NBS plates, by Resazurin OD(600-570)
Results with a measured potency or affinity are listed apart.
Readout Type: Inhibition (%)

>>> measurement("Cc1cc2nn(CC(=O)Nc3cccc(C)c3C)c(=O)n2c(Nc2ccc(C)c(F)c2)n1")
-5.98
>>> measurement("Cc1ccc(NC(=O)Cn2nc3c(Oc4cccc(C)c4C)nccn3c2=O)c(Br)c1")
-8.9
>>> measurement("COc1cccc(NC(=O)Cn2nc3c(N4CCCC4)nccn3c2=O)c1")
-12.87
>>> measurement("COc1cccc(-n2ccn3c(SCc4ccc(Cl)cc4)nnc3c2=O)c1")
-6.31
>>> measurement("COc1ccccc1NC(=O)Cn1nc2c(SCc3ccc(Cl)cc3)nccn2c1=O")
-17.01
>>> measurement("COc1ccc(-c2cc3c4nn(CC(=O)Nc5ccccc5)c(=O)n4ccn3n2)cc1")
-7.06
>>> measurement("COc1ccccc1-n1ccn2c(=O)n(Cc3ccc(F)cc3Cl)nc2c1=O")
-6.11
>>> measurement("COc1cc(NC(=O)CSc2nnc3c(=O)n(-c4cccc(OC)c4)ccn23)cc(OC)c1")
-8.68
>>> measurement("Cc1ccc(Cl)cc1N1CCN(C(=O)CCc2nnc3c4cc(-c5ccccc5)nn4ccn23)CC1")
-6.62
>>> measurement("CCc1nnc2c(S(=O)(=O)N(Cc3cccc(OC)c3)c3ccccc3)cccn12")
-9.71
